target: CYP2D6 (Homo sapiens); assay: Inhibition of CYP2D6 in human liver microsomes using propranolol as substrate at 10 uM incubated for 10 mins in presence of NADPH by LC-MS/MS analysis relative to control; format: ADME, Microsome; settings: probe propranolol
Sequence (P10635 whole entry): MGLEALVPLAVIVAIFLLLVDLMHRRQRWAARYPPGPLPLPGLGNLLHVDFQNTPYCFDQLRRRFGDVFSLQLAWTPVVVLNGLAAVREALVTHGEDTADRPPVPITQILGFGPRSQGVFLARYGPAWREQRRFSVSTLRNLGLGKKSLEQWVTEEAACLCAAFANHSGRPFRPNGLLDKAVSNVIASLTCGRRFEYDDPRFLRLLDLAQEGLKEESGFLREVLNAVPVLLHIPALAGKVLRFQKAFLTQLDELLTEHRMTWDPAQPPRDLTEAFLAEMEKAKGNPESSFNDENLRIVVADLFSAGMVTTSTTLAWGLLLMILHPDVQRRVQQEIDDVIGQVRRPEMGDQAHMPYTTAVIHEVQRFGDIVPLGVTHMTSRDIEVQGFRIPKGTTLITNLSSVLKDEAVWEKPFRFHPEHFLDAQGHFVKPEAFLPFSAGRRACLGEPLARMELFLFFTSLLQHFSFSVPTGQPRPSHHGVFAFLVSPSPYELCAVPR
Experimental readout: inhibition at 10 min, 10 µM (%)
Output spec: scalar in %, unitless text.

Give the measured inhibition at 10 min, 10 µM of `NC(=O)[C@@H]1C[C@H](F)CN1Cc1ccc2oc(-c3ccc(F)cc3)cc2c1` .
-3.37

----------
experiment: Elimination half life in fasted Sprague-Dawley rat at 5 mg/kg, IG measured for 24 hrs; type: ADME, organism-based; settings: in vivo, po, read-out: beta t1/2 (converted)
Experimental readout: half-life
Answer format: number, then unit.

Give the measured half-life of C[C@H](NCc1ccc(OCc2cccc(F)c2)cc1)C(N)=O [SAFINAMIDE] .
2.62 h

Give the measured half-life of `NC(=O)[C@@H]1C[C@H](F)CN1Cc1ccc2oc(-c3cccc(F)c3)cc2c1` .
2.21 h

Give the measured half-life of `NC(=O)[C@@H]1CCN1Cc1ccc2oc(-c3cccc(F)c3)cc2c1` .
1.06 h

Give the measured half-life of `NC(=O)[C@@H]1CCN1Cc1ccc2oc(-c3ccccc3F)cc2c1` .
1.15 h

Give the measured half-life of `NC(=O)[C@@H]1C[C@H](F)CN1Cc1ccc2oc(-c3ccc(F)cc3)cc2c1` .
4.22 h

Give the measured half-life of `NC(=O)[C@@H]1CCN1Cc1ccc2oc(-c3ccc(F)cc3)cc2c1` .
3.92 h

----------
experiment: Volume of distribution at steady state in fasted Sprague-Dawley rat at 1 mg/kg, iv measured for 24 hrs; assay type: ADME, organism-based; settings: in vivo, read-out: Vdss
Experimental readout: Vd (L/kg)
Output spec: scalar in L/kg, unitless text.

Give the measured Vd of `NC(=O)[C@@H]1CCN1Cc1ccc2oc(-c3ccccc3F)cc2c1` .
2.39

Give the measured Vd of C[C@H](NCc1ccc(OCc2cccc(F)c2)cc1)C(N)=O [SAFINAMIDE] .
5.26

Give the measured Vd of `NC(=O)[C@@H]1C[C@H](F)CN1Cc1ccc2oc(-c3ccc(F)cc3)cc2c1` .
3.33

Give the measured Vd of `NC(=O)[C@@H]1CCN1Cc1ccc2oc(-c3ccc(F)cc3)cc2c1` .
8.53

Give the measured Vd of `NC(=O)[C@@H]1C[C@H](F)CN1Cc1ccc2oc(-c3cccc(F)c3)cc2c1` .
4.12

Give the measured Vd of `NC(=O)[C@@H]1CCN1Cc1ccc2oc(-c3cccc(F)c3)cc2c1` .
4.96

----------
Would you kindly list AUC(0-t) at 24 h for each of these compounds?
assay: AUC (0 to t) in fasted ICR mouse at 2 mg/kg, iv measured for 24 hrs; format: ADME, organism-based; design: dose 2 mg/kg, time 24 hrs, route iv; conditions: in vivo
Output spec: scalar in ng·h/mL, unitless text.

Give the measured AUC(0-t) at 24 h of C[C@H](NCc1ccc(OCc2cccc(F)c2)cc1)C(N)=O [SAFINAMIDE] .
930

Give the measured AUC(0-t) at 24 h of `NC(=O)[C@@H]1C[C@H](F)CN1Cc1ccc(OCc2cccc(F)c2)cc1` .
561

Give the measured AUC(0-t) at 24 h of `NC(=O)[C@@H]1C[C@H](F)CN1Cc1ccc2oc(-c3ccc(F)cc3)cc2c1` .
2680
